All values here come from patent US5593982A.

# MEASUREMENT_TARGET: purified Na^+,K^+ -ATPase (Canis lupus familiaris)
# Construct: from tissue; mammalian kidney outer medulla by the cited Jorgensen 1974 method (own knowledge)
# ASSAY_NOTES: inhibition of the activity of the purified Na+,K+-ATPase measured as % of hydrolysis of 32P-ATP
# Format: biochemical
# TEST_PARAMETERS: hydrolysis of 32P-ATP, purified Na+,K+-ATPase; read-out: Inhibitory Activity log IC50 (converted)
MEASUREMENT_LABEL: IC50

[in] Report IC50, nothing else, for this compound: C[C@]12CC[C@H](OCC[N+]3(C)CCCC3)C[C@H]1CC[C@@H]1[C@@H]2CC[C@]2(C)[C@@H](c3ccoc3)CC[C@]12O
[out] 1260 nM

[in] Report IC50, nothing else, for this compound: C[C@]12CC[C@H](SCCN3CCCC3)C[C@H]1CC[C@@H]1[C@@H]2CC[C@]2(C)[C@@H](c3ccoc3)CC[C@]12O
[out] 3980 nM

[in] Report IC50, nothing else, for this compound: C[C@]12CC[C@H](OCCCN3CCNCC3)C[C@H]1CC[C@@H]1[C@@H]2CC[C@]2(C)[C@@H](c3ccoc3)CC[C@]12O
[out] 1260 nM

[in] Report IC50, nothing else, for this compound: C[C@]12CC[C@H](OCCN3CCCC3)CC1=CC[C@@H]1[C@@H]2CC[C@]2(C)[C@@H](c3ccoc3)CC[C@]12O
[out] 6310 nM

[in] Report IC50, nothing else, for this compound: CO[C@]12CC[C@H](c3ccoc3)[C@@]1(C)CC[C@H]1[C@H]2CC[C@@H]2C[C@@H](OCCN3CCCC3)CC[C@@]21C
[out] 25100 nM

[in] Report IC50, nothing else, for this compound: C[C@]12CC[C@H](OCCCN)C[C@H]1CC[C@@H]1[C@@H]2CC[C@]2(C)[C@@H](c3ccoc3)CC[C@]12O
[out] 1260 nM

[in] Report IC50, nothing else, for this compound: CN(C)CCCOCCO[C@H]1CC[C@@]2(C)[C@H](CC[C@@H]3[C@@H]2CC[C@]2(C)[C@@H](c4ccoc4)CC[C@]32O)C1
[out] 1260 nM

[in] Report IC50, nothing else, for this compound: CO[C@]12CC[C@H](c3ccoc3)[C@@]1(C)CC[C@H]1[C@H]2CC[C@@H]2C[C@@H](OCCCN)CC[C@@]21C
[out] 25100 nM

====

# MEASUREMENT_TARGET: Na^+,K^+ -ATPase receptor (Canis lupus familiaris)
# Construct: from tissue; mammalian kidney outer medulla by the cited Jorgensen 1974 method (own knowledge)
# ASSAY_NOTES: displacement of the specific 3H-ouabain binding from the purified Na+,K+-ATPase receptor
# TEST_PARAMETERS: displacement of specific 3H-ouabain binding, purified Na+,K+-ATPase; read-out: Binding 3H-Ouab. Displacement log IC50 (converted)
We label by threshold. Values of IC50 strictly beneath 800 nM are yes (1). Values of 800 nM and up are no (0).

[in] Input CO[C@]12CC[C@H](c3ccoc3)[C@@]1(C)CC[C@H]1[C@H]2CC[C@@H]2C[C@@H](OCCN3CCCC3)CC[C@@]21C [Comp. I-as] ; condition: IC50 strictly below 800 nM. Does it hold?
[out] no (0)

[in] Input C[C@]12CC[C@H](OCCCN)C=C1CC[C@@H]1[C@@H]2CC[C@]2(C)[C@@H](c3ccoc3)CC[C@]12O [Comp. I-at] ; condition: IC50 strictly below 800 nM. Does it hold?
[out] yes (1)

[in] Input C[C@]12CC[C@H](SCCN)C[C@H]1CC[C@@H]1[C@@H]2CC[C@]2(C)[C@@H](c3ccoc3)CC[C@]12O [Comp. I-bv] ; condition: IC50 strictly below 800 nM. Does it hold?
[out] yes (1)

[in] Input C[C@]12CC[C@H](OCCCN)CC1=CC[C@@H]1[C@@H]2CC[C@]2(C)[C@@H](c3ccoc3)CC[C@]12O [Comp. I-av] ; condition: IC50 strictly below 800 nM. Does it hold?
[out] yes (1)

[in] Input CO[C@]12CC[C@H](c3ccoc3)[C@@]1(C)CC[C@H]1[C@H]2CC[C@@H]2C[C@@H](OCCCN)CC[C@@]21C [Comp. I-ar] ; condition: IC50 strictly below 800 nM. Does it hold?
[out] no (0)
